assay: Inhibition of Inositol 1,4,5-trisphosphate 3-kinase from rat brain homogenate (S substrate)
measure: Ki (nM)
Field: numeric (nM). Do not append units.

**Q:** If you can, please state the reported Ki value of `O=P(O)(O)O[C@@H]1[C@H](O)[C@H](O)[C@@H](OP(=O)(O)O)[C@H](OP(=O)(O)O)[C@H]1O` .
**A:** 850

###

target: Inositol polyphosphate-5-phosphatase A (Homo sapiens, UniProt Q14642); assay: Tested for inhibition of 5-phosphatase isolated from human erythrocyte membrane (S substrate)
Sequence (Q14642 whole entry): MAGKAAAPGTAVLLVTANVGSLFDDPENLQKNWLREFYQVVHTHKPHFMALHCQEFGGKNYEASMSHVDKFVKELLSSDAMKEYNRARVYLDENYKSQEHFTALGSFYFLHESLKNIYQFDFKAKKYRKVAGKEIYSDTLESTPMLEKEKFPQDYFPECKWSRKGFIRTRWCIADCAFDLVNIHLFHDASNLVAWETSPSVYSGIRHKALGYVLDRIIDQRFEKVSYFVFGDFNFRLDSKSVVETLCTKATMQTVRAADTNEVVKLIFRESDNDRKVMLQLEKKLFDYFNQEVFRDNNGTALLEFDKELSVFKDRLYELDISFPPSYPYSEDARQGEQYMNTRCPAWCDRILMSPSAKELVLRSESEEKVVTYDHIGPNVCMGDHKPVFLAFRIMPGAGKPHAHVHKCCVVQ
Reported values of pKi for individual entries
Conceptually, pKi converts a concentration in mol/L into minus its log10.

O=P(O)(O)OC1CCC(OP(=O)(O)O)[C@H](OP(=O)(O)O)C1 (some centres undefined): 4.09

**Q:** If you can, please state the reported pKi value of O=P(O)(O)O[C@@H]1[C@H](O)[C@H](O)[C@@H](OP(=O)(O)O)[C@H](OP(=O)(O)O)[C@H]1O [INS(1,4,5)P3] .
**A:** 4.82

**Q:** If you can, please state the reported pKi value of O=P(O)(O)OC1CCC(OP(=O)(O)O)[C@H](OP(=O)(O)O)[C@@H]1O (some centres undefined) .
**A:** 4.78

**Q:** If you can, please state the reported pKi value of O=P(O)(O)OC1[C@H](O)CC(OP(=O)(O)O)[C@H](OP(=O)(O)O)[C@@H]1O (some centres undefined) .
**A:** 4.94

These data points were gathered from ChEMBL document CHEMBL1126847.
